# experiment description: Ratio of compound ED50 to paclitaxel ED50 for tubulin assembly
Below, each entry is listed alongside its reported Ratio ED50.
API doc: respond with a numeric literal and nothing else, no unit.

smiles string	Ratio ED50
CC(=O)O[C@H]1C(=O)[C@]2(C)[C@@H](OC(=O)CCCC(N)=O)C[C@H]3OC[C@@]3(OC(C)=O)[C@H]2[C@H](OC(=O)c2ccccc2)[C@]2(O)C[C@H](OC(=O)[C@H](O)[C@@H](NC(=O)c3ccccc3)c3ccccc3)C(C)=C1C2(C)C	0.6

API: the following record is the query input.
Give the measured Ratio ED50 of CNC(=O)CCC(=O)O[C@H]1C[C@H]2OC[C@@]2(OC(C)=O)[C@H]2[C@H](OC(=O)c3ccccc3)[C@]3(O)C[C@H](OC(=O)[C@H](O)[C@@H](NC(=O)c4ccccc4)c4ccccc4)C(C)=C([C@@H](OC(C)=O)C(=O)[C@]12C)C3(C)C .
0.8
